Assignment: determine reported solubility kinetic for the given molecules.
experimental-details: Kinetic Solubility
Type: physicochemical
setup-conditions: kinetic from dmso stock
Counter-ions that a name gives are not always drawn.

[ask] Find the recorded solubility kinetic belonging to N[C@@H]1CCCC[C@@H]1NC(=O)c1cc(-c2cnn3cc(N4CCNCC4)cnc23)cs1 and report it.
[reply] > 300 µM

[ask] Find the recorded solubility kinetic belonging to CCC(CC)NC(=O)c1cc(-c2cnn3cc(N4CCC(N)CC4)cnc23)cs1 [hydrochloride] and report it.
[reply] 203 µM

[ask] Find the recorded solubility kinetic belonging to CCC(CC)NC(=O)c1cc(-c2cnn3cc(N4CCNCC4)cnc23)cs1 [hydrochloride] and report it.
[reply] > 300 µM

---

Assignment: determine reported pIC50 for the given compounds.
pIC50: −log10 of the molar value. Where a name gives a salt, the structure may show the parent alone.

[ask] Look up pIC50 with ULK2 (Homo sapiens (Human), UniProt Q8IYT8) for this compound: CC(C)(CO)NC(=O)c1cc(-c2cnn3cc(N4CCNCC4)cnc23)cs1 [hydrochloride]
Sequence (Q8IYT8 whole entry): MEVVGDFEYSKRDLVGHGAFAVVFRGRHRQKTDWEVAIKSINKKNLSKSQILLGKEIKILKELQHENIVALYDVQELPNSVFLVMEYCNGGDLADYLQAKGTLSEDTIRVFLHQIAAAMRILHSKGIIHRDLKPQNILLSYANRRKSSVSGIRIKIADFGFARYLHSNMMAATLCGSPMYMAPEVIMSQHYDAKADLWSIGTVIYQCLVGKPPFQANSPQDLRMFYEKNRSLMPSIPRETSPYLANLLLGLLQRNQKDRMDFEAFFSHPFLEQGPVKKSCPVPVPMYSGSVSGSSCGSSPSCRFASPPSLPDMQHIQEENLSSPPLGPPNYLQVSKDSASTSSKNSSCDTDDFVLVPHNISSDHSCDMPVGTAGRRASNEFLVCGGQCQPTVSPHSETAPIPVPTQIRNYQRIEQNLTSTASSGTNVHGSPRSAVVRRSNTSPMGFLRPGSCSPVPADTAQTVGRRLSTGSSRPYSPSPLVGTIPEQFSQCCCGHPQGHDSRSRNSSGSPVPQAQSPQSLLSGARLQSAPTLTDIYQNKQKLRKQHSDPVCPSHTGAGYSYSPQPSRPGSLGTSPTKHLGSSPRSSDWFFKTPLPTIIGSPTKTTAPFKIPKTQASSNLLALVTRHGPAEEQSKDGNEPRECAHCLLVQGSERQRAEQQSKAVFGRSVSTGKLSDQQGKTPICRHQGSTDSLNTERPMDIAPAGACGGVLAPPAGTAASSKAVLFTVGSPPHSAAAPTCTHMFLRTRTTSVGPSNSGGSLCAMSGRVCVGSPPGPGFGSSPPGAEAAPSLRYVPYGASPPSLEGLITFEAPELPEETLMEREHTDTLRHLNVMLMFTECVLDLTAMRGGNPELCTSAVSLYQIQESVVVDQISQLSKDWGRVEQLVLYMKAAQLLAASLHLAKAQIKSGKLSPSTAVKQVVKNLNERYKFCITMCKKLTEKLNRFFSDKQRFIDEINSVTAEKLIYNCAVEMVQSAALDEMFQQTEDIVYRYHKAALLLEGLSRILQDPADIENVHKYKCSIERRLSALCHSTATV
[reply] 6.00 to 6.30

[ask] Look up pIC50 with ULK2 (Homo sapiens (Human), UniProt Q8IYT8) for this compound: CCC(CC)NC(=O)c1cc(-c2cnn3cc(N4CCC(N)CC4)cnc23)cs1 [hydrochloride]
[reply] 7.00 to 7.30

[ask] Look up pIC50 with ULK2 (Homo sapiens (Human), UniProt Q8IYT8) for this compound: CC(C)(C)OC(=O)N[C@@H]1CCCC[C@@H]1NC(=O)c1cc(-c2cnn3cc(N4CCN(C(=O)OC(C)(C)C)CC4)cnc23)cs1
[reply] 6.00 to 6.30

---

Where a name gives a salt, the structure may show the parent alone.
Assignment: determine reported IC50 for the given compounds.

[ask] Look up IC50 with ULK1 (Homo sapiens (Human), UniProt O75385) for this compound: CCC(CC)NC(=O)c1cc(-c2cnn3cc(N4CCC(NC(=O)OC(C)(C)C)CC4)cnc23)cs1
Sequence (O75385 whole entry): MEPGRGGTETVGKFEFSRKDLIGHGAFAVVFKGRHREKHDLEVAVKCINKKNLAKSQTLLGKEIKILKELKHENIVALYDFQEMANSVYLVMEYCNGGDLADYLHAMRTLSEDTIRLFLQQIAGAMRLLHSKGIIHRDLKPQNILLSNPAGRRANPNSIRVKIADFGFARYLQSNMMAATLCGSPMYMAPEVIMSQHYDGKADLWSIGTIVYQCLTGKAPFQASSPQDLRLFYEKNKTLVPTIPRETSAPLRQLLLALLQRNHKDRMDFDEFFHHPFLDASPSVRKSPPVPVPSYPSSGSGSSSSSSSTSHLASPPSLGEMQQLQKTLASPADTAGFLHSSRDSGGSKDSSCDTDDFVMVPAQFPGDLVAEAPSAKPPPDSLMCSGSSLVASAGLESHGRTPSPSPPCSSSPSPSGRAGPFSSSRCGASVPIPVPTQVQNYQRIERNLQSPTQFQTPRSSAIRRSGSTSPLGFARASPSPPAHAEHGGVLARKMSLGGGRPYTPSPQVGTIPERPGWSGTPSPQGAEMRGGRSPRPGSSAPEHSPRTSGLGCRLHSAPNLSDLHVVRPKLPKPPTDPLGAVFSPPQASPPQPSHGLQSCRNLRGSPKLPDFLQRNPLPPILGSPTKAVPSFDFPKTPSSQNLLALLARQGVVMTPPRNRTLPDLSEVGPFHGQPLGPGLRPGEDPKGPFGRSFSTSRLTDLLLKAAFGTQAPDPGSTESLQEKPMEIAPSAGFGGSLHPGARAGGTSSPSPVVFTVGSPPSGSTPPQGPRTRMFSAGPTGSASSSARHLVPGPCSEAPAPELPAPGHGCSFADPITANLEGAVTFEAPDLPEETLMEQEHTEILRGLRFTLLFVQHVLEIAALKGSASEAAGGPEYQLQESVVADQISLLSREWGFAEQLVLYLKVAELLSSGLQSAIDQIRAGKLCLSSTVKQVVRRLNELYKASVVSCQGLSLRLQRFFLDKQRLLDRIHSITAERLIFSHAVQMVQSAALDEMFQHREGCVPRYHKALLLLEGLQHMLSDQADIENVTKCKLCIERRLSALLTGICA
[reply] 0.05 to 0.099 µM

[ask] Look up IC50 with ULK1 (Homo sapiens (Human), UniProt O75385) for this compound: CCC(CC)NC(=O)c1cc(-c2cnn3cc(N4CCNCC4)cnc23)cs1 [hydrochloride]
[reply] 0.05 to 0.099 µM

[ask] Look up IC50 with ULK1 (Homo sapiens (Human), UniProt O75385) for this compound: CCC(CC)NC(=O)c1cc(-c2cnn3cc(Nc4ccccc4)cnc23)cs1
[reply] 0.001 to 0.049 µM

[ask] Look up IC50 with ULK1 (Homo sapiens (Human), UniProt O75385) for this compound: CCC(CC)NC(=O)c1cc(-c2cnn3cc(N4CCC(N)CC4)cnc23)cs1 [hydrochloride]
[reply] 0.001 to 0.049 µM

[ask] Look up IC50 with ULK1 (Homo sapiens (Human), UniProt O75385) for this compound: CCC(CC)NC(=O)c1cc(-c2cnn3cc(N4CCCC4)cnc23)cs1
[reply] 0.5 to 1 µM

[ask] Look up IC50 with ULK1 (Homo sapiens (Human), UniProt O75385) for this compound: CC(C)(CO)NC(=O)c1cc(-c2cnn3cc(N4CCNCC4)cnc23)cs1 [hydrochloride]
[reply] 0.1 to 0.499 µM

[ask] Look up IC50 with ULK1 (Homo sapiens (Human), UniProt O75385) for this compound: NC1CCN(c2cnc3c(-c4csc(C(=O)N[C@@H](C5CC5)C(F)(F)F)c4)cnn3c2)CC1
[reply] 0.001 to 0.049 µM
